- Test system: AMP-activated protein kinase, AMPK (Homo sapiens) (UniProt P54646+O43741+P54619+Q9UGJ0+Q9Y478+Q13131+Q9UGI9)
- Test summary: AMP-dependent Kinase enzyme assay. An in vitro enzyme assay that detects ADP turnover that is directly proportional to AMPK activity. This uses naive AMPK that is activated during the assay with MK-8722
- Format: functional
- Set-up: scale not given: direction of the effect not stated beside the values
- Condition: 30 µM
Documented Percent Effect across a set of compounds
Please don't drop the unit; write it after the number.

Previously resolved entries follow.
1) CCc1nc(CC(=O)N2CCOCC2c2ncon2)cs1 (configuration not stated)    -3.99%
2) O=C(NCc1cc[nH]n1)NCC(c1ccccc1Cl)N1CCCC1 (configuration not stated)    -5.47%
3) O=C(Cn1c(=O)n(Cc2ccco2)c2ncccc21)NC1CCCCC1    -4.42%
4) CCN(CCn1cccn1)Cc1nc(-c2cccs2)oc1C    40.3%

Q: Percent Effect lookup needed for CC(c1cccnc1)N(C)Cc1csc(-c2ccccn2)n1 (configuration not stated) , thanks.
Ans: -12.1%

Q: Also need O=C(NCc1cncc2c1CCN(Cc1cccs1)C2)C1CC1 , thanks.
Ans: 3.65%

Q: Also need CCCC(=O)Nc1sc(C(=O)OCC)c(C)c1C#N , thanks.
Ans: 24.2%

Q: Also need COc1cccc(-c2nc(C)c(C(=O)NC(CO)CCSC)s2)c1 (configuration not stated) , thanks.
Ans: 7.43%

Q: Also need CC(CNC(=O)Nc1ccc(N(C)C)nc1)Cn1cccn1 (configuration not stated) , thanks.
Ans: -13.8%

Q: Also need CCc1c(C)nc2n(c1=O)CC(C(=O)Nc1nc3c(s1)CCCC3)CS2 (configuration not stated) , thanks.
Ans: 6.33%

Q: Also need COc1cccc2cc(CNC(=O)N3CCCC(O)C3)oc12 (configuration not stated) , thanks.
Ans: -3.54%

Q: Also need CCc1cnc(N2CC3(CCN(C(=O)c4ccoc4)C3)C2)nc1 , thanks.
Ans: 3.45%
